Taken from patent US20260226068A1.

- test_system: IL-17A/A (Homo sapiens, UniProt Q16552)
- Sequence (Q16552 24-155): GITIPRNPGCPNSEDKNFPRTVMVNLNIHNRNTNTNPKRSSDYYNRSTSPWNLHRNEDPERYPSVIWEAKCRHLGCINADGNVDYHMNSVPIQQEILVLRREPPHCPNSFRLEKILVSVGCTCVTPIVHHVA
- measurement_notes: IL-17A/A HEK-Blue cell assay (SEAP reporter)
- protocol_conditions: HEK-Blue IL-17A reporter cells, IL17A/A 5 ng/mL, 20 hours, SEAP read at A630; read-out: HEK-Blue IL17AA (IC50 for IL-17A/A inhibition)

| compound | test_system | IC50 |
| --- | --- | --- |
| CCn1nccc1C(=O)N[C@H](c1cn2nc(C[C@H]3C[C@@H](C(F)(F)F)CNC3=O)c(CN3CCC(F)(F)C3)nc2n1)[C@H]1CC[C@H](C)CC1 | IL-17A/A (Homo sapiens, UniProt Q16552) | < 100 nM |
| O=C(N[C@H](c1cn2nc(CC3C[C@@H](C(F)(F)F)CNC3=O)c(N3CCOCC3)nc2n1)C1CCC(F)(F)CC1)c1nonc1C1CC1 (single isomer, unassigned) [Compound 20] | IL-17A/A (Homo sapiens, UniProt Q16552) | < 100 nM |
| C=CCCc1nc2nc([C@@H](NC(=O)c3ccnn3CC)C3CCC(F)(F)CC3)cn2nc1C[C@H]1C[C@@H](C(F)(F)F)CNC1=O | IL-17A/A (Homo sapiens, UniProt Q16552) | < 100 nM |
| O=C(N[C@H](c1cn2nc(C[C@H]3C[C@@H](C(F)(F)F)CNC3=O)cnc2n1)C1CCC(F)(F)CC1)c1nonc1[C@H]1CC1(F)F (single isomer, unassigned) | IL-17A/A (Homo sapiens, UniProt Q16552) | 100 to 1000 nM |
| CCn1nccc1C(=O)N[C@H](c1cn2nc(C[C@H]3C[C@@H](C(F)(F)F)CNC3=O)c(C3CCOCC3)nc2n1)[C@H]1C[C@H]2C[C@H]2C1 | IL-17A/A (Homo sapiens, UniProt Q16552) | < 100 nM |
| CCn1ncnc1C(=O)N[C@H](c1cn2nc(C[C@H]3C[C@H](C)CNC3=O)c(C3CCOCC3)nc2n1)C1CCC(F)(F)CC1 | IL-17A/A (Homo sapiens, UniProt Q16552) | 100 to 1000 nM |
| Cn1nccc1C(=O)N[C@H](c1cn2nc(C[C@H]3C[C@@H](C(F)(F)F)CNC3=O)c([C@@H]3CCCOC3)nc2n1)C1CCC(F)(F)CC1 (single isomer, unassigned) | IL-17A/A (Homo sapiens, UniProt Q16552) | < 100 nM |
| O=C(N[C@H](c1cn2nc(C[C@H]3C[C@@H](C(F)(F)F)CNC3=O)c(C3CCOCC3)nc2n1)C1CCC(F)(F)CC1)c1nonc1C1CC1 | IL-17A/A (Homo sapiens, UniProt Q16552) | < 100 nM |
| CCn1nccc1C(=O)N[C@H](c1cn2nc(CC3C[C@@H](C(F)(F)F)CNC3=O)cnc2n1)[C@H]1CC[C@H](C)CC1 (single isomer, unassigned) [Compound 2] | IL-17A/A (Homo sapiens, UniProt Q16552) | 100 to 1000 nM |
| CCn1nccc1C(=O)N[C@H](c1cn2nc(C[C@H]3C[C@@H](C(F)(F)F)CNC3=O)c(C3(C)CCOC3)nc2n1)C1CCC(F)(F)CC1 (single isomer, unassigned) [Compound 166] | IL-17A/A (Homo sapiens, UniProt Q16552) | < 100 nM |
| CCn1nccc1C(=O)N[C@H](c1cn2nc(C[C@H]3C[C@@H](C(F)(F)F)CNC3=O)c(C3CCCN(C)C3)nc2n1)C1CCC(F)(F)CC1 (single isomer, unassigned) | IL-17A/A (Homo sapiens, UniProt Q16552) | < 100 nM |
| O=C(N[C@H](c1cn2nc(C[C@H]3C[C@@H](C(F)(F)F)CNC3=O)cnc2n1)C1CCC(F)(F)CC1)c1conc1CCF | IL-17A/A (Homo sapiens, UniProt Q16552) | 100 to 1000 nM |
